recordedEndpoint: IC50

Ask: Hi! What's the reported IC50 for `O=C(Nc1cc(-c2cccnc2)no1)c1ccc(F)c(F)c1` on UniProt:Q70CQ3?
Reply: 20000 nM

Ask: Field: IC50 (UniProt:Q70CQ3). Entry: `COc1ccc(Cl)cc1NC(=O)c1cc(-c2ccccn2)n[nH]1`
Reply: 164 nM

Ask: For the record `COc1ccc(C(=O)Nc2n[nH]c(C)c2-c2cccc(C)c2)c(OC)c1` , what value of IC50 is listed for UniProt:Q70CQ3?
Reply: 2310 nM

----------
Would you kindly list IC50 for each of these compounds?
target: Ubiquitin carboxyl-terminal hydrolase 30 (Homo sapiens) (UniProt Q70CQ3); test: inhibitors of ubiquitin-specific protease 30 deubiquitylating enzyme, concentration dependence, in vitro biochemical, validation of primary hits (AID 1645865); details: purified USP30, Ub-rhodamine cleavage, fluorescence, 2 h
Sequence (Q70CQ3 whole entry, looked up): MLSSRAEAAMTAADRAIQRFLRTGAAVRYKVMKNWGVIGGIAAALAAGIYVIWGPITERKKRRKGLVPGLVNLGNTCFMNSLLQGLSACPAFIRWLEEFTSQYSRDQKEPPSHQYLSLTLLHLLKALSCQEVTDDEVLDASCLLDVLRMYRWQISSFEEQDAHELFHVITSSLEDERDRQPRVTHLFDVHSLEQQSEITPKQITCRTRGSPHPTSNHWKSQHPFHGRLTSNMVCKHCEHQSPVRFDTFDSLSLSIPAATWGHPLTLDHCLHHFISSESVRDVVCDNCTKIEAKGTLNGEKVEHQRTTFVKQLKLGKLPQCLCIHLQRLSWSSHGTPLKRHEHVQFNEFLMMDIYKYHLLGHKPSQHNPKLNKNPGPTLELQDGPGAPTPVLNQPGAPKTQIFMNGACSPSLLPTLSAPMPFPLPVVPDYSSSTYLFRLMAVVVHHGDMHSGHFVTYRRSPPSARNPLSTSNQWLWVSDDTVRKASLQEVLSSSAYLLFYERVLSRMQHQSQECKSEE
Active and inactive are the calls of the source.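 Rule for the calls: active = maximal inhibition of the USP30 enzyme reaching 30% or more across the dose series; inactive = the rest.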

Ask: # value lookup — system Ubiquitin carboxyl-terminal hydrolase 30 (Homo sapiens) (UniProt Q70CQ3), readout IC50, item `O=C(NCc1ccc(F)cc1)C1CCN(c2cnc(N3CCCCC3)nc2)CC1`
Reply: > 50 µM (inactive)

Ask: Please tell me: IC50 of `COc1ccc(CNc2nn3c(-c4cncc(OC)c4)cnc3s2)cc1` , system Ubiquitin carboxyl-terminal hydrolase 30 (Homo sapiens) (UniProt Q70CQ3)?
Reply: 1.5 µM

Ask: Could you share what IC50 was measured for CC1OC1C(=O)[C@]1(O)[C@H](C)[C@@H](O)[C@@]23O[C@@]2([C@H](O)c2c(O)cccc2C3=O)[C@H]1O (stereo partly specified) , tested on Ubiquitin carboxyl-terminal hydrolase 30 (Homo sapiens) (UniProt Q70CQ3)?
Reply: > 50 µM (inactive)

Ask: Missing value: IC50, Ubiquitin carboxyl-terminal hydrolase 30 (Homo sapiens) (UniProt Q70CQ3), entry `O=C(Nc1ccc(NS(=O)(=O)c2ccc3c4c(cccc24)CC3)cc1)c1ccccc1` . Fill in?
Reply: > 50 µM (inactive)

Ask: Checklist item: IC50 tested on Ubiquitin carboxyl-terminal hydrolase 30 (Homo sapiens) (UniProt Q70CQ3), entry `CCn1ccc2c(cc(C(=O)Nc3cc(F)ccc3F)n2C)c1=O` , value?
Reply: > 50 µM (inactive)

Ask: Request - read-out IC50 | tested on Ubiquitin carboxyl-terminal hydrolase 30 (Homo sapiens) (UniProt Q70CQ3) | compound CC1CC[C@]2(NC1)O[C@H]1C[C@H]3[C@@H]4CC[C@H]5C[C@@H](O[C@@H]6O[C@H](CO)[C@H](O[C@@H]7O[C@H](CO)[C@@H](O)[C@H](O[C@@H]8OC[C@@H](O)[C@H](O)[C@H]8O)[C@H]7O[C@@H]7O[C@H](CO)[C@@H](O)[C@H](O)[C@H]7O)[C@H](O)[C@H]6O)CC[C@]5(C)[C@H]4CC[C@]3(C)[C@H]1[C@@H]2C (stereo partly specified)
Reply: 39.5 µM

Ask: What IC50 appears in the records for this compound with Ubiquitin carboxyl-terminal hydrolase 30 (Homo sapiens) (UniProt Q70CQ3)? CC(C)NC(=O)CN1C(=O)CC(C)Sc2ccc(S(=O)(=O)N3CCCCC3)cc21 (stereo unspecified)
Reply: 27.1 µM

Ask: Form entry - test system: Ubiquitin carboxyl-terminal hydrolase 30 (Homo sapiens) (UniProt Q70CQ3); read-out: IC50; compound: O=C(Nc1ccccc1)C1CCCN(C(=O)c2cc3ccccc3[nH]2)C1 (stereo unspecified)
Reply: 25.3 µM

Ask: Item: `O=C(Cn1c(=O)n(Cc2ccc3c(c2)OCO3)c(=O)c2ncccc21)c1ccc(Cl)cc1` Test system: Ubiquitin carboxyl-terminal hydrolase 30 (Homo sapiens) (UniProt Q70CQ3) Read-out: IC50 Value: ?
Reply: 32.1 µM

Ask: Request: IC50, test system Ubiquitin carboxyl-terminal hydrolase 30 (Homo sapiens) (UniProt Q70CQ3), entry `FC(F)(F)c1ccccc1CCN1CCc2nc3ccc(Cl)cc3cc2C1`
Reply: > 50 µM (inactive)

Ask: // fetch Ubiquitin carboxyl-terminal hydrolase 30 (Homo sapiens) (UniProt Q70CQ3) IC50 for `CNC(=O)c1c2n(c3ncccc13)CCN(S(=O)(=O)c1ccc(-c3ccccc3)cc1)C2`
Reply: 3.95 µM

----------
target: UniProt Q70CQ3; assay: inhibitors of ubiquitin-specific protease 30 deubiquitylating enzyme, concentration dependence, in vitro biochemical, validation of primary hits (AID 1645865); settings: purified USP30, Ub-rhodamine cleavage, fluorescence, 2 h
Activity calls are given as the source filed them.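 The calls were made as follows: active = maximal inhibition of the USP30 enzyme reaching 30% or more across the dose series; inactive = the rest.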
For each entry below, report its IC50 value.

Ask: Give its IC50 value. Item: `O=c1[nH]cccc1NS(=O)(=O)c1ccc(F)cc1`
Reply: > 50 µM (inactive)

Ask: Bench note: what IC50 did `COc1cccc(NC(=O)Nc2ccc(CCc3nc4ccccc4[nH]3)cc2)c1` show?
Reply: 28.2 µM

Ask: Fill in: IC50 of `Nc1c(-c2ccc(Cl)cc2)cnc2nc(Sc3ncc(C(F)(F)F)cc3Cl)nn12` is ___
Reply: > 50 µM (inactive)

----------
biological target: Ubiquitin carboxyl-terminal hydrolase 30 (Homo sapiens); test: inhibitors of ubiquitin-specific protease 30 deubiquitylating enzyme, concentration dependence, in vitro biochemical, validation of primary hits (AID 1645865); conditions: purified USP30, Ub-rhodamine cleavage, fluorescence, 2 h
Activity calls are given as the source filed them.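 The calls were made as follows: active = maximal inhibition of the USP30 enzyme reaching 30% or more across the dose series; inactive = the rest.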
Hello, when you answer, please use one of the following outcomes: active, inactive

Ask: Any idea what this test logged for `Oc1sc(C=Nc2cc(Cl)ccc2Cl)c2ccccc12` ?
Reply: active

Ask: // outcome(item) with item = `COc1ccc2ncc3c(-c4ccc(C)cc4)nn(-c4ccc(F)cc4)c3c2c1`
Reply: active

Ask: Record request — test call for CC1CC(=O)c2c(cc3c(-c4c(O)cc(O)c5c(O)c6c(cc45)OC(C)CC6=O)c(O)cc(O)c3c2O)O1 (centres undefined)
Reply: inactive

Ask: Fill in: this test's call for `CC1=C(c2ccc(F)cc2)S(=O)(=O)NC1=NCC(=O)Nc1ccc(F)cc1F` is ___
Reply: active

Ask: Which outcome was entered for the compound CC1CC(=O)Nc2ccccc2N1S(=O)(=O)c1ccc(C#N)cc1 (centres undefined) in this test?
Reply: inactive

Ask: Entry `COC(=O)c1cc2c(ccn2C)n1CC(=O)NC1CC1` : call = ?
Reply: inactive

Ask: What call does the record list for `Cc1ccc(-n2cc(C(=O)NCc3cccnc3)nn2)cc1C` ?
Reply: active

Ask: What call does the record list for CNC(=O)C1CN(C(=O)c2ccc(OC)cc2)CC12CCCC2 (centres undefined) ?
Reply: inactive

Ask: // return assay outcome for `Nc1ccc(F)c(NS(=O)(=O)c2ccccc2)c1`
Reply: inactive

Ask: Please indicate how the test categorized `CC(C)N1C[C@@H]2C[C@H](NS(=O)(=O)c3cccc(C#N)c3)CN2Cc2ccccc21` .
Reply: inactive

Ask: How did this test come out for `O=C(Cc1cccnc1)Nc1ccc(N2CCN(C3CCCCC3)C2=O)nc1` ?
Reply: inactive

Ask: Hello, I am checking results. What call was entered for `Cc1c(OCC(=O)Nc2nc3ccccc3[nH]2)ccc2c3c(c(=O)oc12)CCC3` ?
Reply: active

Ask: // outcome(item) with item = `CC(=O)Nc1ccc(S(=O)(=O)NCc2ccc(C(=O)NCc3ccc(C)cc3)cc2)cc1`
Reply: active

Ask: State the result this test recorded for `O=C(CN1C(=O)NC2(CCCCC2)C1=O)Nc1ccc([N+](=O)[O-])cc1` .
Reply: active

Ask: I would be grateful if you could indicate the recorded call for `CCN(Cc1ccccc1)S(=O)(=O)c1ccc(C(=O)Nc2ccc3c(c2)OCCO3)cc1` .
Reply: inactive

Ask: Please indicate how the test categorized `COc1ccc(C(=O)Nc2ccc3c(c2)Sc2ncccc2C(=O)N3C)cn1` .
Reply: inactive

Ask: Which outcome was assigned to `O=c1[nH]c2ccccc2cc1CN(Cc1ccco1)S(=O)(=O)c1ccc(F)cc1` in this test?
Reply: inactive

Ask: Short answer needed: outcome of this test for `Cc1cc(NC(=O)c2nnn(-c3ccccc3Cl)c2C)no1` ?
Reply: inactive

Ask: Tell me the recorded outcome of this test for `Cc1cc(-c2nnc(SCC(=O)Nc3ccc(Br)c(C)c3)n2N)n[nH]1` .
Reply: active

----------
target: Ubiquitin carboxyl-terminal hydrolase 30 (Homo sapiens); assay: inhibitors of ubiquitin-specific protease 30 deubiquitylating enzyme, concentration dependence, in vitro biochemical, validation of primary hits (AID 1645865); conditions: purified USP30, Ub-rhodamine cleavage, fluorescence, 2 h
Calls of active or inactive are those of the source.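 Rule for the calls: active = maximal inhibition of the USP30 enzyme reaching 30% or more across the dose series; inactive = the rest.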
Write down the outcome that applies. Available outcomes: Yes for active, No for inactive

Ask: Please share the test call associated with `CCOc1ccc(CC(=O)Nc2ccc(-c3cn4cccnc4n3)cc2)cc1` .
Reply: No

Ask: # outcome recorded in this test, key = `COc1cccc(NC(=O)c2ccc3noc(-c4ccc(Cl)cc4)c3c2)c1`
Reply: Yes

Ask: In this assay, the call recorded for `O=C1Cc2ccccc2C(=O)N1c1ccc2c(c1)OCO2` was what?
Reply: No

Ask: So what was the verdict on O=C1CC(O)C(O)c2cccc(O)c21 (centres undefined) in this test?
Reply: No

Ask: Recorded test call requested for Cc1ccc2[nH]c(=O)c(CN(CC3COCCO3)S(=O)(=O)c3ccc(F)cc3)cc2c1 (centres undefined)
Reply: Yes

Ask: Dear colleague, could you share the recorded outcome for `Cc1cc(C)cc(-n2ccnc(SCC(=O)Nc3cccc(Cl)c3)c2=O)c1` when you have a moment?
Reply: Yes

Ask: Which result was noted for this compound in the test: `O=C(CCCCn1c(=O)c2ccccc2n(Cc2ccccc2F)c1=O)NCCc1ccccc1`
Reply: Yes

Ask: What did the test return for `COCCNC(=O)c1ccn(-c2ccc3ccc(-c4ccncc4)cn23)n1` ?
Reply: No

Ask: What outcome does the record of this test show for `O=C(NCc1cccc(NC(=O)C2CC2)c1)Nc1cccc2ccccc12` ?
Reply: Yes

Ask: Outcome logged for CCCCC/C=C/C=C/C(=O)OC1C(O)CC(c2ccc3c(c2O)C(=O)c2c(O)cc4cc(C)cc(O)c4c2C3=O)OC1C (centres undefined) in this assay:
Reply: No

Ask: Query: recorded result category for COc1ccc(OC)c(NC(=O)C2=C(C)Nc3ncnn3C2c2ccccc2OCc2ccc(C)cc2)c1 (centres undefined) in this test
Reply: Yes

Ask: Outcome logged for `O=C(NCCc1ccco1)c1ccc(N2CCOc3ccccc32)s1` in this assay:
Reply: Yes

Ask: What did the test return for COC1=C(C2=C(OC)C(=O)c3cc4c(c(O)c3C2=O)C(=O)OC(C)C4)C(=O)c2c(cc3c(c2O)C(=O)OC(C)C3)C1=O (centres undefined) ?
Reply: No

Ask: Please state the recorded outcome for this compound: `CN(C)c1ccc(CCN2CCc3nc4cccnc4cc3C2)cc1`
Reply: No

Ask: Please state the recorded outcome for this compound: CCC(C(=O)NCc1ccncc1)N(c1cccc(Cl)c1)S(C)(=O)=O (centres undefined)
Reply: No

Ask: Could you kindly confirm the outcome this assay logged for `COc1ccc(NC(=O)c2ccc(Nc3nnc(C)c4ccccc34)cc2)cc1` ?
Reply: No

Ask: Assay outcome for `COc1cccc(C(=O)NCc2[nH]nc3ccccc23)c1` : what was it?
Reply: No

Ask: Returns: the outcome recorded for `Cc1nc(-c2ccc(-n3cc(C(=O)Nc4cccc(F)c4)c(C)n3)cc2)no1` in this assay.
Reply: Yes

Ask: What was the test verdict on `COc1ccc(-c2nc(SCC(=O)Nc3ccc(C(C)=O)cc3)n[nH]2)cc1` ?
Reply: Yes

Ask: What did this assay record as the result for `Cc1cccc(C(=O)Nc2ccccc2Sc2nc3c(c(=O)n(C)c(=O)n3C)n2C)c1` ?
Reply: Yes

Ask: Status in this test for `CCCC(=O)Nc1nc2ccc(CCC(=O)NCc3ccc(F)cc3)cc2s1` ?
Reply: Yes

Ask: Tell me the recorded outcome of this test for `Cc1ccccc1-c1noc(-c2ccccc2OCC(=O)NC(C)C)n1` .
Reply: No

Ask: Per the assay record, what outcome was assigned to `Cc1cc(/C=C2/C(=N)N3C(c4ccccc4)=CSC3=NC2=O)c(C)n1-c1ccc2ccccc2c1` ?
Reply: No

Ask: Please share the test call associated with `CCS(=O)(=O)c1ccccc1C(=O)Nc1ccc2sc(C)nc2c1` .
Reply: No

Ask: I would be grateful if you could indicate the recorded call for `O=[N+]([O-])c1cccc(CSc2nnc(/C=C/c3ccccc3)o2)c1` .
Reply: No

Ask: Test call, this compound: CO[C@H]1/C=C/OC2(C)Oc3c(C)c(O)c4c(c3C2=O)C2(C=C(NC(=O)/C(C)=C\C=C\[C@H](C)[C@H](O)[C@@H](C)[C@@H](O)[C@@H](C)[C@H](OC(C)=O)C1C)C4=O)OCC(=O)O2 (some centres undefined)
Reply: No

Ask: Could you kindly confirm the outcome this assay logged for `CCN(c1ccc(NC(=O)CSc2nnc(-c3ccccc3)n2-c2ccc(OC)c(OC)c2)cc1)C(C)C` ?
Reply: Yes

Ask: Give the logged outcome of this assay for the following compound: `O=C(Cc1ccc(Cl)c(Cl)c1)OCC(=O)c1c[nH]c2ccccc12`
Reply: No

Ask: Entry `O=C(CCC1CCCCC1)Nc1ccccc1C(=O)N1CCOCC1` : call = ?
Reply: No
